- ASSAY_CONTEXT: human
Recorded Hepatotoxicity (cytolytic) values for a group of compounds are listed next.

COMPOUND | Hepatotoxicity (cytolytic)
Nc1ccn([C@@H]2O[C@H](CO)[C@@H](O)C2(F)F)c(=O)n1 | 6
CCC[N+]12[C@H](O)[C@@H](CC)[C@@H]3C[C@H]1[C@@H]1N(C)c4ccccc4[C@]14C[C@H]2C3[C@H]4O (some centres undefined) | 3
CNC1CCCN(c2c(F)cc3c(=O)c(C(=O)O)cn(C4CC4)c3c2OC)C1 (centres undefined) | 0
CCc1nc(N)nc(N)c1-c1ccc(Cl)cc1 | 0

====

Parameter: Hepatotoxicity (choleostasis). Scope: all listed entries.
- ASSAY_CONTEXT: human
ASSAY_ENDPOINT: Hepatotoxicity (choleostasis)

COMPOUND | READOUT_VALUE
CCOC(=O)c1c(N)sc2c1CCN(Cc1ccccc1)C2 [TINORIDINE] | 0
NCCCC[C@H](N[C@@H](CCc1ccccc1)C(=O)O)C(=O)N1CCC[C@H]1C(=O)O [LISINOPRIL ANHYDROUS] | 0
CC/C(=C(/CC)c1ccc(O)cc1)c1ccc(O)cc1 [DIETHYLSTILBESTROL] | 4
CO[C@@]1(NC(=O)CSC(F)F)C(=O)N2C(C(=O)O)=C(CSc3nnnn3CCO)CO[C@@H]21 [FLOMOXEF] | 0
CCC1(C)CC(=O)NC1=O (centres undefined) [ETHOSUXIMIDE] | 0
O=C(O)Cc1sc(-c2ccccc2)nc1-c1ccc(Cl)cc1 [FENTIAZAC] | 0
Nc1ccc(C(=O)[O-])cc1.[K+] [AMINOBENZOATE POTASSIUM] | 0
Clc1ccc(COC(Cn2ccnc2)c2ccc(Cl)cc2Cl)cc1 (centres undefined) [ECONAZOLE] | 0
COCCc1ccc(OCC(O)CNC(C)C)cc1 (centres undefined) [METOPROLOL] | 0
CN1C[C@H](CC#N)C[C@@H]2c3cccc4[nH]c(Cl)c(c34)C[C@H]21 [LERGOTRILE] | 0
O=[N+]([O-])O[C@H]1CO[C@H]2[C@@H]1OC[C@H]2O[N+](=O)[O-] [ISOSORBIDE DINITRATE] | 0
Cc1ccc(O)c([C@H](CCN(C(C)C)C(C)C)c2ccccc2)c1 [TOLTERODINE] | 1
CCN(CC)CCNC(=O)c1cc(Cl)c(N)cc1OC [METOCLOPRAMIDE] | 0
CCN[C@@H]1C[C@H](N)[C@@H](O[C@H]2OC(CN)=CC[C@H]2N)[C@H](O)[C@H]1O[C@H]1OC[C@](C)(O)[C@H](NC)[C@H]1O [NETILMICIN] | 0
CN(C)CCCN1c2ccccc2C(C)(C)c2ccccc21 [DIMETACRINE] | 0
Nc1ccc(C(=O)O)cc1 [AMINOBENZOIC ACID] | 0
CC(C)C(=O)Nc1ccc([N+](=O)[O-])c(C(F)(F)F)c1 [FLUTAMIDE] | 7
O=C(O)Cn1c(=O)n(Cc2ccc(Br)cc2F)c(=O)c2ccc(Cl)cc21 [ZENARESTAT] | 0
Nc1nc(N)c2nc(-c3ccccc3)c(N)nc2n1 | 0

====

Below, each entry is listed with its recorded Hepatotoxicity (choleostasis).
- ASSAY_CONTEXT: human

SUBSTANCE | Hepatotoxicity (choleostasis)
BLEOMYCIN | 0
UROKINASE | 0
INTERLEUKIN 6 | 1
INTERLEUKIN 1BETA | 0
PEGVISOMANT | 0
NYSTATIN | 0
ETANERCEPT | 0
NEDAPLATIN | 0
PENTOSAN POLYSULFATE SODIUM | 0
BCG VACCINE | 2
INTERFERON ALFA | 1
FILGRASTIM | 1
ADALIMUMAB | 0
NARTOGRASTIM | 0
PEGASPARGASE | 0
ANTIMONY (III) ION | 0
CAPROMAB PENDETIDE | 0
PARAFFIN | 0
IVERMECTIN | 0

====

- ASSAY_CONTEXT: human, serum

COMPOUND | Hepatotoxicity (acute)
CC(C)[C@@H]1NC(=O)[C@H](CCCCN)NC(=O)[C@@H](Cc2c[nH]c3ccccc23)NC(=O)[C@H](Cc2ccc(O)cc2)NC(=O)[C@@H](NC(=O)[C@H](N)Cc2ccc3ccccc3c2)CSSC[C@@H](C(=O)N[C@H](C(N)=O)[C@@H](C)O)NC1=O [LANREOTIDE] | 0
Nc1nc(-c2ccccc2)c(Br)c(=O)[nH]1 [BROPIRIMINE] | 0
Cc1c(N)nc([C@@H](CC(N)=O)NC[C@@H](N)C(N)=O)nc1C(=O)N[C@@H](C(=O)N[C@@H](C)[C@H](O)[C@@H](C)C(=O)N[C@H](C(=O)NCCc1nc(-c2nc(C(=O)NCCCN(C)CCCN(Cc3ccc(OCc4ccccc4)c(OCc4ccccc4)c3)Cc3ccc(OCc4ccccc4)c(OCc4ccccc4)c3)cs2)cs1)[C@@H](C)O)C(O[C@H]1O[C@@H](CO)[C@H](O)[C@@H](O)[C@H]1O[C@H]1O[C@@H](CO)[C@@H](O)[C@H](OC(N)=O)[C@@H]1O)c1c[nH]cn1 (stereo not given in full) | 0
O=C(O)c1nn(Cc2ccc(Cl)cc2Cl)c2ccccc12 [LONIDAMINE] | 0
CO[C@@]1(NC(=O)C(C(=O)[O-])c2ccc(O)cc2)C(=O)N2C(C(=O)[O-])=C(CSc3nnnn3C)CO[C@@H]21.[Na+].[Na+] (stereo not given in full) [MOXALACTAM DISODIUM] | 1

====

- ASSAY_CONTEXT: human, Liver
Returns: string. Value is TRUE if measured Hepatotoxicity (cytolytic) is below 4, and FALSE if it is greater than or equal to it.

MOLECULE | CLASS_LABEL
CN(C)CCC=C1c2ccccc2C=Cc2ccccc21 [CYCLOBENZAPRINE] | TRUE
CN[C@H]1CC[C@@H](c2ccc(Cl)c(Cl)c2)c2ccccc21 [SERTRALINE] | FALSE
NCCCC(O)(P(=O)(O)O)P(=O)(O)O [ALENDRONIC ACID] | TRUE
CN(C)Cc1ccc(CSCCN/C(=C\[N+](=O)[O-])NCc2ccc3c(c2)OCO3)o1 [NIPEROTIDINE] | TRUE
N[C@@H]1C[C@H]1c1ccccc1.N[C@H]1C[C@@H]1c1ccccc1 [TRANYLCYPROMINE] | TRUE
CN(C)C(=N)N=C(N)N [METFORMIN] | TRUE
Nc1nc(-c2ccccc2)c(Br)c(=O)[nH]1 [BROPIRIMINE] | TRUE
CCOc1ccccc1OCC1CNCCO1 (stereo unspecified) [VILOXAZINE] | TRUE
CO[C@H]1/C=C/O[C@@]2(C)Oc3c(C)c(O)c4c(c3C2=O)C2=NC3(CCN(CC(C)C)CC3)NC2=C(NC(=O)/C(C)=C\C=C\[C@H](C)[C@H](O)[C@@H](C)[C@@H](O)[C@@H](C)[C@H](OC(C)=O)[C@@H]1C)C4=O [RIFABUTIN] | TRUE
CN1C(C(=O)Nc2ccccn2)=C(O)c2sccc2S1(=O)=O [TENOXICAM] | TRUE
c1ccc([C@H]2CN3CCSC3=N2)cc1 [LEVAMISOLE] | TRUE
Cl[C@H]1[C@H](Cl)[C@@H](Cl)[C@@H](Cl)[C@H](Cl)[C@H]1Cl [LINDANE] | TRUE
NNc1nncc2ccccc12 [HYDRALAZINE] | FALSE
Nc1ccn([C@H]2CC[C@@H](CO)O2)c(=O)n1 [ZALCITABINE] | TRUE
CN/C(=N/CCSCc1nc[nH]c1C)NC#N [CIMETIDINE] | FALSE
Sc1ncnc2nc[nH]c12 [MERCAPTOPURINE ANHYDROUS] | FALSE
CC1=C(/C=C/C(C)=C/C=C/C(C)=C/CO)C(C)(C)CCC1 [RETINOL] | TRUE
NNCCc1ccccc1 [PHENELZINE] | FALSE
OCCOCCN1CCN(C2=Nc3ccccc3Sc3ccccc32)CC1 [QUETIAPINE] | TRUE
CC1(C)S[C@@H]2[C@H](NC(=O)[C@H](NC(=O)N3CCN(S(C)(=O)=O)C3=O)c3ccccc3)C(=O)N2[C@H]1C(=O)O [MEZLOCILLIN] | TRUE
O=P1(N(CCCl)CCCl)NCCCO1 (stereo unspecified) [CYCLOPHOSPHAMIDE ANHYDROUS] | FALSE
CC(=O)O[C@H]1C(=O)[C@@]2(C)[C@H]([C@H](OC(=O)c3ccccc3)[C@]3(O)C[C@H](OC(=O)[C@H](O)[C@@H](NC(=O)c4ccccc4)c4ccccc4)C(C)=C1C3(C)C)[C@]1(OC(C)=O)CO[C@@H]1C[C@@H]2O [PACLITAXEL] | TRUE
C#C[C@]1(O)CC[C@H]2[C@@H]3CCC4=CC(=O)CC[C@@H]4[C@H]3CC[C@@]21CC [LEVONORGESTREL] | TRUE
[H]/N=C(/N)N[C@H]1[C@H](O)[C@@H](O)[C@H](O[C@@H]2O[C@@H](C)[C@](O)(C=O)[C@H]2O[C@@H]2O[C@@H](CO)[C@H](O)[C@@H](O)[C@@H]2NC)[C@@H](N/C(N)=N\[H])[C@@H]1O [STREPTOMYCIN] | TRUE
CCN(CC)Cc1cc(Nc2ccnc3cc(Cl)ccc23)ccc1O.Cl | FALSE
COc1ccc2cc([C@H](C)C(=O)O)ccc2c1 [NAPROXEN] | FALSE
O=C1Nc2ccc(Cl)cc2C(c2ccccc2)=NC1O (stereo unspecified) [OXAZEPAM] | TRUE
CCCc1cc(=O)[nH]c(=S)[nH]1 [PROPYLTHIOURACIL] | FALSE
Nc1ccc(S(=O)(=O)Nc2ncccn2)cc1 [SULFADIAZINE] | TRUE
Nc1c2c(nc3ccccc13)CCCC2 [TACRINE] | FALSE
Nc1ncn([C@@H]2O[C@H](CO)[C@@H](O)[C@@H]2O)c(=O)n1 [FAZARABINE] | TRUE
Clc1ccc2nsnc2c1NC1=NCCN1 [TIZANIDINE] | TRUE
CCn1cc(C(=O)O)c(=O)c2cc(F)c(N3CCNCC3)cc21 [NORFLOXACIN] | TRUE
NC(CO)(CO)CO [TROMETHAMINE] | TRUE
CNCCCC12CCC(c3ccccc31)c1ccccc12 [MAPROTILINE] | FALSE
